- experiment_summary: yeast display, Sf9 membrane polyspecificity reagent, FACS + sequencing; frameworks hold sequencing errors

sequence_string: QVQLVESGGGLVQAGGSLRLSCAASGSIFYTYAMGWYRQAPGKERELVAAITYRVGSTYYADSVKGRFTISRDNAKNTVYLQMNSLKPEDTAVYYCNADKGGHVRHYDYWGQGTQVTVSS
polyreactivity (PSR sort gate): low polyreactivity

sequence_string: QVQLVESGGGLVQAGGSLRLSCAASGNIFLYYAMGWYRQAPGKERELVADIDSSGASTYYADSVKGRFTISRDNAKNTVYLQMNSLKPEDTAVYNCAARAERVREYNYWGQGTQVTVSS
polyreactivity (PSR sort gate): low polyreactivity
